# experimental system: HCV NS3-NS4A protease (tNS3 with KK4A) (Hepatitis C virus genotype 1a, UniProt P27958)
# Sequence (P27958 1027-1208): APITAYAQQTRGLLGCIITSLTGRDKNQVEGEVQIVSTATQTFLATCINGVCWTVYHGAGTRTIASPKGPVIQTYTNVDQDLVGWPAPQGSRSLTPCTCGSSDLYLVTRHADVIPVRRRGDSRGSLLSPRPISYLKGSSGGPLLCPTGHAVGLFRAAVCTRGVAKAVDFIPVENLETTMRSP
# test: HCV Ki assay (HPLC microbore separation of 5AB substrate and products)
# Format: biochemical
# study conditions: 25 nM tNS3, 25 μM KK4A, 25 μM 5AB substrate, 20 min at 30 C; read-out: Ki
*1 amine or outer side, *2 acyl side, *3 side chain or, on linkers, in order; H or OH if unused. Where a SMILES comes first, the peptide text is derived from it. [ ]: non-standard residue; d: D form. The star is where a group is joined. Pro(trans-3-iPr) = CC(C)[C@H]1CCN[C@@H]1C(=O)O; Pro(3S-Et) = CC[C@H]1CCN[C@@H]1C(=O)O; Phe(2-Me) = Cc1ccccc1C[C@H](N)C(=O)O; Pyrazinecarbonyl = O=C(c1cnccn1)*; X1 = CCCC(N[*:1])C(=O)C(=O)[*:2]
readout: Ki

Task item: Sample CCCC(NC(=O)[C@@H]1[C@@H](CC)CCN1C(=O)[C@@H](NC(=O)[C@@H](NC(=O)c1cnccn1)C1CCCCC1)C(C)CC)C(=O)C(=O)NC1CC1 (stereo partly drawn) — what was its Ki?
Reply: 100 to 500 nM

Task item: Which Ki is listed for CCCC(NC(=O)[C@@H]1[C@@H](C)CCN1C(=O)[C@@H](NC(=O)[C@@H](NC(=O)c1cnccn1)C(C)C)C(C)C)C(=O)C(=O)N[C@@H](Cc1ccccc1)C(=O)O (stereo partly drawn) ?
Reply: 100 to 500 nM

Task item: Look up Ki for this compound: CCC[C@H](NC(=O)[C@@H]1[C@@H](C2CCCCC2)CCN1C(=O)[C@@H](NC(=O)[C@@H](NC(=O)c1ccc[nH]1)C1CCCCC1)C(C)(C)C)C(=O)C(=O)NC1CC1
Reply: < 100 nM

Task item: // Ki lookup, key: CCCC(NC(=O)[C@@H]1[C@@H](CC)CCN1C(=O)[C@@H](NC(=O)[C@@H](NC(=O)c1cnccn1)C(C)C)[C@@H](C)OC)C(=O)C(=O)N[C@@H](Cc1ccccc1)C(=O)O (stereo partly drawn) [Compound 35] (Pyrazinecarbonyl-VT(Me)[Pro(3S-Et)][X1]F-OH)
Reply: > 500 nM

Task item: State the recorded Ki for this entry: CCCC(NC(=O)[C@@H]1[C@@H](CC2CC2)CCN1C(=O)[C@@H](NC(=O)[C@@H](NC(=O)c1cnccn1)C(C)C)C(C)C)C(=O)C(=O)N[C@@H](Cc1ccccc1)C(=O)O (stereo partly drawn)
Reply: 100 to 500 nM

Task item: Which Ki is reported for this compound? CCCC(NC(=O)[C@@H]1C(CC)CCN1C(=O)[C@@H](NC(=O)[C@@H](NC(=O)c1cnccn1)C(C)C)C(C)C)C(=O)C(=O)N[C@@H](Cc1ccccc1)C(=O)O (stereo partly drawn)
Reply: < 100 nM

Task item: Which value of Ki has been reported for CCCC(NC(=O)[C@@H]1[C@@H](C(C)C)CCN1C(=O)[C@@H](NC(=O)[C@@H](NC(=O)c1cnccn1)C(C)C)C(C)C)C(=O)C(=O)N[C@@H](Cc1ccccc1)C(=O)O (stereo partly drawn) [Compound 16] (Pyrazinecarbonyl-VV[Pro(trans-3-iPr)][X1]F-OH) in the records?
Reply: 100 to 500 nM

Task item: Endpoint output: Ki of CCCC(NC(=O)[C@@H]1[C@@H](CC)CCN1C(=O)[C@@H](NC(=O)[C@H](Cc1ccccc1C)NC(=O)c1cnccn1)C(C)C)C(=O)C(=O)N[C@@H](Cc1ccccc1)C(=O)O (stereo partly drawn) [Compound 27] (Pyrazinecarbonyl-[Phe(2-Me)]V[Pro(3S-Et)][X1]F-OH) . Value?
Reply: < 100 nM
